Reference for the values: patent US20220411492A1

- Assayed Target: T1, human Claudin 18.2 (hCLDN18.2) (human, UniProt P56856-2 1-261)
- T1 construct: whole, on cells; also called CLDN18A2; claudin 18 splice variant 2
- Assay Info: FACS, HEK293-hCLDN18.2 cells
Measurement Name: pEC50
pEC50 is defined as minus the log10 of a concentration measured in mol/L.

Form field pEC50, entry ch-42D2 (antibody, V domains shown, also called chimeric antibody of clone 42D2) VH: EVQLQQSGPVLVKPGASVKMSCKASGYTFTDYQMNWVKQSHGKSLEWIGFINPYNGGIRYNQKFKGKATLTVDKSSSTAYMELNSLTSEDSAVYYCATIYFGNSFANWGQGTLVTVSA VL: DIVMTQSPSSLTVTAGEKVTMSCKPSQSLLNSGNQKNYLTWYQQKPGQPPRLLIYWASTRESGVPDRFTGSGSGTDFTLTISSVQAEDLAVYYCQNDYIYPYTFGGGTNLEIK : 8.62
